B1: LINE1-mini (parent)
chain: GGCAGAGCUCAACACAGCGUGGCAAAGUGGCUGUGGCUAGACUGCC

variants of: B1; assay: self-cleavage, relative activity (ratio to wild type); higher = more cleavage; in vitro, sequencing; the parent is a self-cleaving ribozyme
Would you mind classing the entries by self-cleavage? Ranges: low bracket = under 0.05, middle bracket = from 0.05 up to 0.2, high bracket = 0.2 and over

input.sequence: GGCCGAGUUCAACACAGCGUGGCAAAGUGGCUGUGGCUAGACUGCC [A4C C8U]
answer.label: high bracket

input.sequence: GGCAGAGCUCAACACAGCGUGGCAAAGUGGCUGUGACAAGACUGCC [G36A U38A]
answer.label: middle bracket

input.sequence: GGCAGAGCUCAACACAUCGUGGCAAUGUGGCUGUGGCUAGACUGCC [G17U A26U]
answer.label: low bracket

input.sequence: GGCAGAGCUCAGCACAGCGUGGCAAAGUGUCUGUGGCUAGACUGCC [A12G G30U]
answer.label: low bracket

input.sequence: GGCAGACAUCAACACAGCGUGGCAAAGUGGCUGUGGCUAGACUGCC [G7C C8A]
answer.label: high bracket

input.sequence: GGGAAAGCUCAACACAGCGUGGCAAAGUGGCUGUGGCUAGACUGCC [C3G G5A]
answer.label: high bracket

input.sequence: GGCAGAGCUCAAUACAGCGUGGCAAAGUGGCUGAGGCUAGACUGCC [C13U U34A]
answer.label: middle bracket

input.sequence: GGCAGAGCUCAACACAGCGUGGCAGAGUGGCUGUGGCUGGACUGCC [A25G A39G]
answer.label: middle bracket

input.sequence: GGCAGAGCUCAACACAGUGUGGCAAAGUAGCUGUGGCUAGACUGCC [C18U G29A]
answer.label: high bracket

input.sequence: GGCAGUGCUCAACACAGCGUGGAAAAGUGGCUGUGGCUAGACUGCC [A6U C23A]
answer.label: high bracket

input.sequence: GGCAGAGCUCAACACAGCGUGGCGAAGUGGCUGUGGCGAGACUGCC [A24G U38G]
answer.label: low bracket
